What follows is a record of pIC50 for PDE2 (Homo sapiens, UniProt O00408).
pIC50: −log10 of the molar value.

molecule	value-modifier	pIC50
COc1ccc2c(c1)c(=O)oc1cc(OCc3cc(C)nn3C)ccc12	=	4.53
CCOc1ccc2c(c1)oc(=O)c1ccccc12 [Compound 1b, Ethoxy-6H-benzo[c]chromen-6-one]	=	4.60
CCCCOc1ccc2c(c1)oc(=O)c1cc(OC)ccc12	=	4.75
CC(C)Oc1ccc2c(c1)oc(=O)c1ccccc12 [Compound 1c, 3-Isopropoxy-6H-benzo[c]chromen-6-one]	=	4.59
O=c1oc2cc(OCC3OCCO3)ccc2c2ccccc12	<	4.30
COc1ccc2c(c1)c(=O)oc1cc(OCC3CCOCC3)ccc12	=	4.60
COc1ccc2c(c1)c(=O)oc1cc(OC(C)C)ccc12	=	4.52
CCCCOc1ccc2c(c1)oc(=O)c1ccccc12 [Compound 1f, 3-butoxy-6H-benzo[c]chromen-6-one]	=	5.44
COc1ccc2c(c1)c(=O)oc1cc(OCCC3OCCO3)ccc12	<	4.30

---

Below, each entry is listed alongside its reported melting point.

input-smiles	melting point
O=c1oc2cc(OCC3CCOCC3)ccc2c2ccccc12	133 to 134.8 °C
O=c1oc2cc(Oc3ncccn3)ccc2c2ccccc12	174 to 176.6 °C
COc1ccc2c(c1)c(=O)oc1cc(OCc3cc(C)nn3C)ccc12	184.6 to 186.6 °C
COc1ccc2c(c1)c(=O)oc1cc(Oc3ncccn3)ccc12	212.3 to 214 °C
COc1ccc2c(c1)c(=O)oc1cc(OCC3CCOCC3)ccc12	168.1 to 168.5 °C

---

What follows is a record of IC50 for PDE2 (Homo sapiens, UniProt O00408).
readout-name: IC50 (µM)

compound	target-system	value-modifier	value
COc1ccc2c(c1)c(=O)oc1cc(OCCSC)ccc12	PDE2 (Homo sapiens, UniProt O00408)	=	14.9
COc1ccc2c(c1)c(=O)oc1cc(OCC3CCCC3)ccc12	PDE2 (Homo sapiens, UniProt O00408)	>	50
COc1cc(COc2ccc3c(c2)oc(=O)c2ccccc23)cc(OC)c1	PDE2 (Homo sapiens, UniProt O00408)	>	50
COc1ccc2c(c1)c(=O)oc1cc(OCC3OCCO3)ccc12	PDE2 (Homo sapiens, UniProt O00408)	>	50
CCC(C)Oc1ccc2c(c1)oc(=O)c1ccccc12 (stereo not shown) [Compound 1e, 3-(Sec-butoxy)-6H-benzo[c]chromen-6-one]	PDE2 (Homo sapiens, UniProt O00408)	=	37.7
CCCCCOc1ccc2c(c1)oc(=O)c1ccccc12 [Compound 1g, 3-(pentyloxy)-6H-benzo[c]chromen-6-one]	PDE2 (Homo sapiens, UniProt O00408)	>	50
COc1ccc2c(c1)c(=O)oc1cc(OCCO)ccc12	PDE2 (Homo sapiens, UniProt O00408)	>	50
O=c1oc2cc(OCC3CCCC3)ccc2c2ccccc12	PDE2 (Homo sapiens, UniProt O00408)	=	8.14
COc1cc(COc2ccc3c(c2)oc(=O)c2cc(OC)ccc23)cc(OC)c1	PDE2 (Homo sapiens, UniProt O00408)	>	50
CCOC(=O)COc1ccc2c(c1)oc(=O)c1ccccc12	PDE2 (Homo sapiens, UniProt O00408)	=	18.7

---

What follows is a record of IC50 for PDE2 (Homo sapiens, UniProt O00408).

compound	value-modifier	IC50 [µM]
CCC(C)Oc1ccc2c(c1)oc(=O)c1cc(OC)ccc12 (centres unmarked)	>	50
CCOC(=O)COc1ccc2c(c1)oc(=O)c1cc(OC)ccc12	>	50
COc1ccc2c(c1)oc(=O)c1ccccc12 [Compound 1a, 3-Methoxy-6H-benzo[c]chromen-6-one]	=	28.8
Cc1cc(COc2ccc3c(c2)oc(=O)c2ccccc23)n(C)n1	>	50
O=c1oc2cc(OCC3CCOCC3)ccc2c2ccccc12	=	17.9
